- procedure-summary: NCI Yeast Anticancer Drug Screen. Data for the mlh1 rad18 strain (AID 175)
- condition-set: S. cerevisiae mlh1 rad18 strain growth inhibition; at 50.0 µM; stronger effect = higher value
The panel holds about 79,000 compounds, 15% with a hit somewhere; the sample as a whole holds those more often.
I'd be grateful if you could share measured growth inhibition for these entries.
Dear colleague, please return just the value in %, with no unit written.

Return growth inhibition (reported value) for this compound: `CSc1ncc(CO)c(NC(C)(C)C)n1`
10.5

Fill in reported growth inhibition for this entry: `CC1(C)CS(=O)(=O)CC(C)(C)C(=N/N)/C1=N\N`
-18.2

Identify measured growth inhibition corresponding to `CC(=O)Oc1ccc(C(c2ccccc2)c2ccccc2)c2ccccc12`
-18.9

* * *

- procedure-summary: NCI Yeast Anticancer Drug Screen. Data for the cln2 rad14 strain (AID 165);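 further: 0% = growth equal to vehicle treated cultures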
- condition-set: S. cerevisiae cln2 rad14 strain, at 50.0 µM, stronger effect = higher value
This is part of a sample that, as a whole, favours compounds with a hit. Of some 79,000 tested, about 15% had one in any assay.
Please respond with reported growth inhibition for every item in the list.
Report the value in % with no unit label.

Identify the reported growth inhibition for the following entry. `COC(=O)C(NC(=O)COc1ccccc1[N+](=O)[O-])C(=O)OC`
3

Give me measured growth inhibition, please, for this molecule: `Cc1cc(N=Cc2cccs2)cc(Cl)c1O`
12.2

Look up growth inhibition of `Nc1cc2c(cc1Br)-c1c(C(=O)O)cccc1C2=O` and report it.
7.1

For the molecule `c1ccc2c(c1)ccc1cccc[n+]12` , give its reported growth inhibition.
-12.4

// Input: CCOC(=O)Nc1ccc(C2OCCS2)cc1 (stereo unspecified) . Output its growth inhibition only.
-0.65

Output growth inhibition of `NC(=O)Nc1ccccc1`
-34.5

Identify measured growth inhibition associated with `O=C(/C=C(\N=P(c1ccccc1)(c1ccccc1)c1ccccc1)C(F)(F)C(F)(F)C(F)(F)C(F)(F)C(F)(F)C(F)(F)C(F)(F)F)c1ccccc1`
0.65

Specify growth inhibition for `Cc1cc(C)c(-c2no/c(=N\S(=O)(=O)c3ccc(Cl)cc3)o2)c(C)c1` and stop.
26

Report growth inhibition for `CCOC(=O)C1=C(Nc2ccccc2)OC/C1=N\NC(=O)Cc1ccccc1`
0.85

Supply recorded growth inhibition for CCCCCCCCCOCC(COP(=O)([O-])OCC[N+](C)(C)C)OC (stereo unspecified) here.
-22.4

Return value of growth inhibition for input `Cc1ccc(C(=O)/C=C/c2ccco2)cc1` , no commentary.
33.5

Look up and report measured growth inhibition for this entry: `c1ccc2cc(N=NNc3ccc4ccccc4c3)ccc2c1`
-30.6

Give me measured growth inhibition, please, for this molecule: `NC(=O)c1sc(N2CCCC2)nc1N`
0.95

Using the record for OCCN1OCCCC1c1ccccc1 (stereo unspecified) , state its measured growth inhibition.
-28.1

Please indicate growth inhibition recorded for CN1CC(=O)N2CCCCC2C(c2ccccc2)C1 (stereo unspecified)
-34.7

Using the record for `COc1ccc(NC(=O)/C(Cc2nc3ccccc3[nH]c2=O)=N\O)c(OC)c1` , state its measured growth inhibition.
0.7

Given the molecule `O=[N+]([O-])c1ccc(N=N/C(Cc2ccccc2)=N\Nc2ccccc2)cc1` , write its reported growth inhibition.
22.6

Give a short answer stating reported growth inhibition for Cc1ccccc1N1C(=O)C2CC=CCC2C1=O (stereo unspecified) .
-34.8

Please give the documented growth inhibition of CN(C)CCCOc1nc2c(c(=O)n(C)c(=O)n2C)n1C (tested in a mixture with another compound)
-9.35

Output growth inhibition of COc1cccc(N(CN2C(=O)CCC2OC)C(C)=O)c1 (stereo unspecified)
19.3

Give me measured growth inhibition, please, for this molecule: `CC(C)(CCC(=O)O)CCC(=O)O`
-6.05

Return growth inhibition for the following molecule: CCOC(=O)CCC(N)C(N)=O (stereo unspecified)
8.65

Please report the measured growth inhibition for CCC(/C=C/C(C)C1CCC2C3CC=C4CC(OC(=O)Nc5ccccc5)CCC4(C)C3CCC12C)C(C)C (stereo unspecified)
77.2

Fill in growth inhibition for record `CN1NC(=O)SC(=O)c2ccccc2C1=O`
-12.1

Given `c1ccc(C2=Nc3ccccc3C(c3ccccc3)=Nc3ccccc32)cc1` , respond with its growth inhibition.
-18.5

Please look at this molecule and report its growth inhibition: O=C(O)CN=CC(O)C(O)C(O)C(O)CO (stereo unspecified)
4.4

* * *

- procedure-summary: NCI Yeast Anticancer Drug Screen. Data for the sgs1 mgt1 strain (AID 161);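 further: 0% = growth of cultures given vehicle only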
- condition-set: S. cerevisiae sgs1 mgt1 strain, at 50.0 µM, stronger effect = higher value
The panel holds about 79,000 compounds, 15% with a hit somewhere; the sample as a whole holds those more often.
What growth inhibition was measured for each of the following?
Give the quantity in %, number only.

Quick one: give measured growth inhibition for `O=C1CN(C=C(C(=O)c2ccccc2)C(=O)c2ccccc2)C(=S)N1`
-19.2

Report growth inhibition for CC(O)C12OC1CC1C3CC4OC45CC(O)CCC5(C)C3CCC12C (stereo not drawn)
38.7

Specify measured growth inhibition for `N#CC(=C1CCN(Cc2ccccc2)CC1)c1ccccc1` .
44.8

* * *

- procedure-summary: NCI Yeast Anticancer Drug Screen. Data for the cln2 rad14 strain (AID 165);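 further: 0% = growth equal to vehicle treated cultures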
- condition-set: S. cerevisiae cln2 rad14 strain, at 50.0 µM, stronger effect = higher value
Compounds without any hit were thinned out: in the full panel of roughly 79,000, 15% have a hit.
measured-attribute: growth inhibition (%)
# output: bare number, implied unit %

Give the reported value of growth inhibition for this record: `CCCCCCN(CCCCCC)C1=CC(=O)C(=O)c2ccccc21`
60

Please report growth inhibition for the following molecule: `Cc1ccc(C2=Nc3cccc4cccc(c34)N2)cc1`
11.1

Determine from records and report growth inhibition for CC(NC(=O)c1ccccc1)C(=O)O (centres undefined)
-24.2

Look up and report measured growth inhibition for this entry: `Cc1ccc(N=C=S)cc1Cl`
6.55

Report growth inhibition, nothing else, for this molecule: `O=C(CCCn1ccnc1[N+](=O)[O-])NCCn1cncc1[N+](=O)[O-]`
7.6

Tell me its growth inhibition given Cc1ccc(N2P(N(C)C)N(c3ccc(C)cc3)P2(=O)N(C)C)cc1 (centres undefined) as the entry.
-5.6

Please report growth inhibition for the following molecule: NN1CCCC(O)C1 (centres undefined)
4.5

For the molecule `CN(/N=C/c1ccc(O)c(/C=N/N(C)c2ccccn2)n1)c1ccccn1` , give its measured growth inhibition value.
-11.9

Dear colleague, please send me the reported growth inhibition for `NC(=O)N/N=C\CC(O)(C(F)(F)Cl)C(F)(F)Cl` when you can.
-1.5

Please indicate growth inhibition recorded for `CNn1c(-c2ccc(C)cc2)n[nH]c1=O`
4.15

State, in one line, measured growth inhibition of CC1SC2(C(=O)N(CN3CCCCC3)c3ccccc32)N(c2ccccc2)C1=O (centres undefined)
-0.8

// fetch growth inhibition given entry `CC(=O)CC(=O)Nc1ccc(C(=O)O)c(O)c1`
-1.45

Name the recorded growth inhibition of the molecule listed here: `O=S(=O)(O)O.[NH-]CC1(C[NH-])CCCCC1.[Pt+2]`
-0.7

Recall and state the measured growth inhibition for `N#CCCN(CCC#N)c1nc(-c2ccccc2)nc(N(CCC#N)CCC#N)n1` .
0.9

* * *

- procedure-summary: NCI Yeast Anticancer Drug Screen. Data for the cln2 rad14 strain (AID 165);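 further: 0% = growth equal to vehicle treated cultures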
- condition-set: S. cerevisiae cln2 rad14 strain, at 50.0 µM, stronger effect = higher value
This is part of a sample that, as a whole, favours compounds with a hit. Of some 79,000 tested, about 15% had one in any assay.
measured-attribute: growth inhibition (%)
Could you give me the number in %? Just the number is fine.

Given Nc1cccc(SC2CC(=O)N(c3ccc4c(c3)OCO4)C2=O)c1 (centres undefined) , respond with its growth inhibition.
79.2

Name the recorded growth inhibition of the item `CSC(=S)n1nc(-c2ccccc2)c(N=Nc2cccc(Cl)c2Cl)c1-c1ccccc1` in your answer.
94.5

// fetch growth inhibition given entry COc1ccc(OC)c(NC(=O)CCCC(=O)C(C#N)c2c(Cl)cccc2Cl)c1 (centres undefined)
-8.05

Quickly give me recorded growth inhibition for `CCN(CC)c1ccc(C(=O)c2ccccc2C(=O)O)c(O)c1`
5.35

Please report the measured growth inhibition for CNC(CCNCCc1ccccc1)CNCCc1ccccc1 (centres undefined)
3.85

Kindly indicate its recorded growth inhibition. Item: `COc1ccc2cc(C(=O)CCC(=O)O)ccc2c1`
-21.3

Complete the entry with growth inhibition for `Oc1ccc(O)c(CCCCCc2cc(O)ccc2O)c1`
34.4

Annotate the compound `CC(C)(CO)CN1CCCC1` with its measured growth inhibition.
1.3

// Input: `COc1ccc(Nc2nnc(-c3nsc4ccccc34)s2)cc1` . Output its growth inhibition only.
22.2

Give the measured growth inhibition for `O=C(Nc1cc(Cl)ccc1Cl)c1ccccc1Cl`
8.85

Provide measured growth inhibition value, entry: `CC1=C(c2cc(C(=O)Nc3cc(C)ccc3C)nc(N)n2)Sc2ccccc2N1`
-18.1

Input Cc1cn(C2OC(CO[Si](C)(C)C(C)(C)C)C(N(C)O[Si](C)(C)C(C)(C)C)C2[Se]c2ccccc2)c(=O)[nH]c1=O (centres undefined) , output reported growth inhibition.
-8.65

Please give the documented growth inhibition of COc1ccc(C(=O)CC(=O)C2CCCCC2=O)cc1 (centres undefined)
-19.8

Kindly indicate its recorded growth inhibition. Item: CC1(C)CCC(C2=CC(=O)c3c(O)ccc(O)c3C2=O)O1 (centres undefined)
17.9
